Origin of the recorded values: paper PMC9482650

Tested on: NOS1, P29475
Sequence (P29475 9-101): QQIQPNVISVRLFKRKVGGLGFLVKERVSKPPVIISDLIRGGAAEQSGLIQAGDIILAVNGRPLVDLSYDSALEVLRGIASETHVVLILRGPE
Protocol text: holdup assay
Parameters: key: below the threshold = too weak to quantify, mostly under pKd 3.1 to 4
Condition context: plain residues with an end cap or a label only (N-terminal biotin on a linker: ttds)
Experimental readout: pKd

binder="KKYVDAETSL [SLC4A7, Q9Y6M7]" result=3.58
binder="DKDPHSETAL [TMIGD1, Q6UXZ0]" result=3.86
binder="RLQRRRETQV [HPV18-E6, P06463]" result=3.71
binder="EVVHTPETSV [SLC16A3, O15427]" result=3.71
binder="NDPAWDETNL [ARHGEF7, Q14155;Q14155-1]" result="below the threshold"
binder="SKPTRRETEV [HPV35-E6, P27228]" result=3.74
binder="SSLQSLETSV [ATP2B4, P23634]" result=4.04
binder="RHTTSTETAV [HPV30-E6, P36809]" result=4.63
binder="EMDRRPATVV [PLCB4, Q15147]" result=4.11
binder="RPLPRKVSQL [DOCK4, Q8N1I0]" result="below the threshold"
binder="PVRVCEETSL [OTULIN, Q96BN8]" result=3.79
binder="VDFPPKESSL [ACVR2A, P27037]" result="below the threshold"
binder="SGSRPSATVV [HPV73-E6, Q82005]" result=3.8
binder="PRVKPQRSKV [PPP1R13L, Q8WUF5]" result="below the threshold"
binder="QRQARSETLV [HPV59-E6, Q81964]" result=4.26
binder="FHPLGADSQV [SLC2A1, P11166]" result=3.49
binder="RLPKIKETTV [FRMPD4, Q14CM0]" result="below the threshold"
